# Assayed Target: trypsin from porcine pancreas (Sus scrofa, UniProt P00761)
# Construct: purchased Sigma; host or cells: porcine pancreas
# Sequence (P00761 9-231): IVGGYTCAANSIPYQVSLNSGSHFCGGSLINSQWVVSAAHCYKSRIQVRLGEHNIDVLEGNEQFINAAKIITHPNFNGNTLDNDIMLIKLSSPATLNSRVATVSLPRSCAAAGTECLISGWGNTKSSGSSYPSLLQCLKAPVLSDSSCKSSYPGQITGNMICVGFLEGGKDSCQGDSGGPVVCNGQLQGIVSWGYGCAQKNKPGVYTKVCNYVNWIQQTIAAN
# Measurement Protocol: Proteolytic stability against trypsin
# Assay type: in vitro ADME
# Test Settings: pig; 55.5 μM peptide, 0.55 μg/ml trypsin from porcine pancreas, ammonium bicarbonate buffer pH 7.5, 37 °C, 15–480 min, intact peptide by RP-HPLC (Fmoc-Gly internal standard), n = 3, nonlinear regression fit; read-out: Half-life (min), trypsin
Where a SMILES comes first, the peptide text is derived from it. Bridges are numbered along the chain shown (N, C = ends). [ ]: non-standard residue; d: D form. S5 = C=CCCC[C@](C)(N)C(=O)O; Nle = CCCC[C@H](N)C(=O)O
Readout: half-life at 55.5 μM (min)
Kindly answer with a numeric value in min, unit omitted.

// query For the compound shown here, CCCC[C@H](NC(=O)[C@]1(C)CCC/C=C\CCC[C@](C)(NC(=O)[C@H](Cc2ccccc2)NC(=O)[C@H](CC(C)C)NC(=O)[C@H](CC(C)C)NC(=O)[C@H](CC(C)C)NC(=O)[C@@H](N)C(C)C)C(=O)N[C@@H](C(C)C)C(=O)N[C@@H](Cc2ccc(O)cc2)C(=O)N[C@@H](C)C(=O)N1)C(=O)N[C@@H](Cc1ccc(O)cc1)C(=O)N[C@H](C(=O)N[C@@H](CC(C)C)C(=O)N[C@@H](Cc1c[nH]c2ccccc12)C(N)=O)[C@@H](C)CC [Peptide 8] (H-VLLLF[S5]VYA[S5][Nle]YILW-NH2; staple (Z) 6-10) , give the reported half-life at 55.5 μM.
// result 307

* * *

# Assayed Target: trypsin from porcine pancreas (Sus scrofa, UniProt P00761)
# Construct: purchased Sigma; host or cells: porcine pancreas
# Measurement Protocol: Proteolytic stability against trypsin
# Type: in vitro ADME
# Test Settings: pig, trypsin from porcine pancreas, pH 7.5, trypsin 0.55 μg/ml, 37 °C, pH 7.5; approximate value of running text; read-out: half-life in trypsin as stated in text (converted)
Where a SMILES comes first, the peptide text is derived from it. Bridges are numbered along the chain shown (N, C = ends). [ ]: non-standard residue; d: D form. S5 = C=CCCC[C@](C)(N)C(=O)O; Nle = CCCC[C@H](N)C(=O)O
Readout: half-life at 55.5 μM

// query For the molecule shown here, CCCC[C@H](NC(=O)[C@]1(C)CCC/C=C\CCC[C@](C)(NC(=O)[C@H](Cc2ccccc2)NC(=O)[C@H](CC(C)C)NC(=O)[C@H](CC(C)C)NC(=O)[C@H](CC(C)C)NC(=O)[C@@H](N)C(C)C)C(=O)N[C@@H](C(C)C)C(=O)N[C@@H](Cc2ccc(O)cc2)C(=O)N[C@@H](C)C(=O)N1)C(=O)N[C@@H](Cc1ccc(O)cc1)C(=O)N[C@H](C(=O)N[C@@H](CC(C)C)C(=O)N[C@@H](Cc1c[nH]c2ccccc12)C(N)=O)[C@@H](C)CC [Peptide 8] (H-VLLLF[S5]VYA[S5][Nle]YILW-NH2; staple (Z) 6-10) , give the reported half-life at 55.5 μM.
// result ~5 h

* * *

# Measurement Protocol: Stability in mouse serum
# Format: in vitro ADME
# Test Settings: 11.1 μM peptide, fresh nonsterile mouse serum (200 μl serum + 25 μl peptide solution, pH 7.5 buffer with 10% DMSO), 37 °C, quench 15% TCA in acetonitrile, HPLC, n = 3; read-out: Half-life (hours), mouse serum (converted)
Where no end group is shown, it is not given here.
Each record here notes measured half-life at 11.1 μM.
Kindly answer with a numeric value in h, unit omitted.

{"Sequence String": "GRKKRRQRRRKTLVLILVVLIICWGPLLAIMVY [TM6-TAT, reference compound]", "Readout": "half-life at 11.1 μM", "Readout Value": 0.55}

// switching to the query sequence
// query For the sequence shown here, ETYLMFWIGVTSVLLLFIVYAYMYILWGRKKRRQRRR [TM5-TAT, reference compound] , give the reported half-life at 11.1 μM.
// result 0.81
